Molecular target: Cytochrome P450 3A4 (Homo sapiens) (UniProt P08684)
Sequence (P08684 whole entry, looked up): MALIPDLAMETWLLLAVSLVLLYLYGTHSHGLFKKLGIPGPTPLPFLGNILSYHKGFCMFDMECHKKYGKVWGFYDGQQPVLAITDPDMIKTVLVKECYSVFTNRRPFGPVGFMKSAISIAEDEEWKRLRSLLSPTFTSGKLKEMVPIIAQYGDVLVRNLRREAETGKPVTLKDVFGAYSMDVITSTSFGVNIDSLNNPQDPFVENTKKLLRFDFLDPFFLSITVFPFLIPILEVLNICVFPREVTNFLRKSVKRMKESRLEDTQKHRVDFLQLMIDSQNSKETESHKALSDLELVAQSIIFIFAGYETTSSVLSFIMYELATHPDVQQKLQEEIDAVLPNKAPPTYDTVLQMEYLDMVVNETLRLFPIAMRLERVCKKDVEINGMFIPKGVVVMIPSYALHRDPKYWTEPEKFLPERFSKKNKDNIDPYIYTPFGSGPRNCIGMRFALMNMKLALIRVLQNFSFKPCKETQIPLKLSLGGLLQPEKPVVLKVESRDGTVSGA
Assay: Cytochrome panel assay with activity outcomes
Details: recombinant CYP, pro-luciferin dealkylation, luminescence, p450-cyp3a4; series mostly up to 57.1 µM
Experimental: The P450 gene superfamily is involved in the metabolism and clearance of xenobiotics. This assay used various human CYP P450 isozymes to measure the dealkylation of various pro-luciferin substrates to luciferin. The luciferin is then measured by luminescence after the addition of a luciferase detection reagent. […] Inhibitors and some substrates limit the production of luciferin, and decrease measured luminescence. […] 8, Detection, 1 sec, ViewLux luminescent read […]
Among all 16,000 compounds or so, about 5,100 (32%) were called active. Roughly 25% stayed inconclusive and do not appear here. Calls follow the shape of the dose curve; as a rule, active = well fitted curve in the direction sought with a large enough effect; inconclusive = small, poorly fitted or top-dose-only effect, or effect the other way; inactive = no such curve, though single readings can be large or run the other way. This is one part of the list.
The reply should be one of these categories: active, inactive

// query Lab log entry: `O=C(O)c1cccc(N2CCCC2=O)c1` — outcome as called in the assay?
// result active

// query Next entry: `CCNc1ncc2nc(C)c(=O)n(C)c2n1`
// result inactive

// query Next entry: `NC(=O)N1c2ccccc2C=Cc2ccccc21`
// result inactive

// query Next entry: `O[C@@H](C1=C/C(=C\c2ccncc2)c2ccccc21)c1ccncc1`
// result active

// query Next entry: `O=C1Nc2ccc(F)cc2C12SCCS2`
// result inactive
